The measurements presented in this section are drawn from ChEMBL document CHEMBL3885881.

Species: Rattus norvegicus
method.notes: DrugMatrix - Regimen: Daily Repeat
Assay type: toxicity, organism-based, Sprague-Dawley
Design: regimen Daily Repeat, gender Male, age 6-8 weeks
condition.description: in vivo, po, 0 mg/kg, 120 h, tissue Blood, route oral GAVAGE, dose level Control, time 5 day, […]
Consider the following compounds; for each one, report its NUCLEATED RED BLOOD CELLS.

Take a look at these entries with their results.
[
  {
    "compound": "O=NN(CCCl)C(=O)NCCCl",
    "NUCLEATED RED BLOOD CELLS": "0 /100WBC"
  },
  {
    "compound": "O=C(O)Cc1ccccc1Nc1c(Cl)cccc1Cl",
    "NUCLEATED RED BLOOD CELLS": "0.17 /100WBC"
  }
]

Report NUCLEATED RED BLOOD CELLS for every entry below.
1. CCCCCCCCc1ccc(O)cc1
2. CC/C(=C(/CC)c1ccc(O)cc1)c1ccc(O)cc1
3. CC(=O)Nc1ccc(O)cc1
4. CC(=O)Nc1cccc(O)c1

**A:**
1: 0 /100WBC; 2: 0.17 /100WBC; 3: 0 /100WBC; 4: 0.33 /100WBC

Report NUCLEATED RED BLOOD CELLS for every entry below.
1. CC(C)Cc1ccc(C(C)C(=O)O)cc1 (stereo unspecified)
2. Cc1cccc(Nc2ccncc2S(=O)(=O)NC(=O)NC(C)C)c1 [TORSEMIDE]
3. C[C@]12CC[C@@H]3c4ccc(O)cc4CC[C@H]3[C@@H]1CC[C@@H]2O
4. CC(C)(Oc1ccc(C2CCCc3ccccc32)cc1)C(=O)O (stereo unspecified)

**A:**
["0.33 /100WBC", "0 /100WBC", "0 /100WBC", "0 /100WBC"]

**Q:** Fill in the blank: the reported NUCLEATED RED BLOOD CELLS of COc1ccc2[nH]c([S+]([O-])Cc3ncc(C)c(OC)c3C)nc2c1 (stereo unspecified) is ____.
**A:** 0.17 /100WBC

====

Species on record: Rattus norvegicus
method.notes: DrugMatrix - Regimen: Daily Repeat
Assay type: toxicity, organism-based, Sprague-Dawley
Parameters: regimen Daily Repeat, gender Male, age 6-8 weeks
condition.description: in vivo, po, 0 mg/kg, 72 h, tissue Plasma, route oral GAVAGE, dose level Control, time 3 day, […]
The label is true for ALBUMIN below 4 G/DL and false for ALBUMIN equal to or exceeding 4 G/DL.

Example cases with answers are listed next.
[
  {
    "compound": "CCOC(=O)C(C)(C)Oc1ccc(Cl)cc1 [CLOFIBRATE]",
    "group": "false"
  },
  {
    "compound": "S=C=Nc1cccc2ccccc12 [1-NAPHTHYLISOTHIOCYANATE]",
    "group": "false"
  }
]

**Q:** Threshold test, ALBUMIN < 4 G/DL: C[C@H]1O[C@@H](O[C@H]2[C@@H](O)C[C@H](O[C@H]3[C@@H](O)C[C@H](O[C@H]4CC[C@@]5(C)[C@H](CC[C@@H]6[C@@H]5CC[C@]5(C)[C@@H](C7=CC(=O)OC7)CC[C@]65O)C4)O[C@@H]3C)O[C@@H]2C)C[C@H](O)[C@@H]1O
**A:** true

**Q:** What about this compound? CC(C)(Oc1ccc(C2CCCc3ccccc32)cc1)C(=O)O (stereo not drawn)
**A:** false
